target_under_test: Nuclear receptor subfamily 1 group I member 2 (Homo sapiens) (UniProt O75469)
Sequence (O75469 whole entry, looked up): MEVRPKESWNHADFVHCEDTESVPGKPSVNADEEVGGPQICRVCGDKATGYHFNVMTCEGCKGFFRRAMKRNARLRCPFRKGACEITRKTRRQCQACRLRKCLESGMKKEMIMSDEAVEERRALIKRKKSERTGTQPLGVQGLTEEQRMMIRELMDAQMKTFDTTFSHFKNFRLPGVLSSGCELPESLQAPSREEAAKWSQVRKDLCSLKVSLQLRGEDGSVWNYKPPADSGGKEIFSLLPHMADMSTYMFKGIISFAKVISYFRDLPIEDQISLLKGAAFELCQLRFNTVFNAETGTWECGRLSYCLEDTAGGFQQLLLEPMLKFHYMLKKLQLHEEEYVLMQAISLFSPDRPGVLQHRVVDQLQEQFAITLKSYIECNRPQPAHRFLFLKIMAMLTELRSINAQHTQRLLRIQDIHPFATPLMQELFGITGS
run_description: Human pregnane X receptor (PXR) small molecule agonists, qHTS assay (AID 1346982); also: nearly all actives have a fitted effect of over 35% in size
condition_context: PXR-Luc HepG2, CYP3A4 luciferase reporter, 24 h; series mostly up to 92.4 µM
Records with an inconclusive call do not appear. The source made the active and inactive calls. Calls follow the shape of the dose curve; as a rule, active = well fitted activation curve with a large enough effect in the repeat runs; inconclusive = weak or mixed curves; inactive = no such curve, though single readings can be large or run the other way.
Give one outcome, nothing more. List: 1 (active), 0 (inactive)

Answered examples (2):
>>> discrete_label("CC(CCC(=O)O)(c1ccc(O)cc1)c1ccc(O)cc1")
0
>>> discrete_label("Cn1cnc([N+](=O)[O-])c1Sc1ncnc2nc[nH]c12")
0

Name the outcome recorded for Brc1cc(Oc2cc(Br)c(Br)c(Br)c2Br)c(Br)c(Br)c1Br in the assay.
1

Name the outcome recorded for O=C1c2cccc(O)c2C(=O)c2c(O)cccc21 in the assay.
0
